# Test system: K-562 leukemia
# MEASUREMENT PROTOCOL: NCI tumour cell line growth inhibition, 48 h
Below is a list of entries, each paired with its recorded TGI value.

Nc1nc(-c2ccccc2)cc(-c2ccccc2O)n1: > 100 µM

Recorded TGI (compound `Clc1ccc2oc(CCC3CCCCC3)nc2c1` ): > 100 µM

====

Reported values of TGI for individual entries
# System: HOP-62 NSCLC
# MEASUREMENT PROTOCOL: NCI tumour cell line growth inhibition, 48 h

COc1ccccc1-c1cc(=O)c2ccccc2n1C1CC1: 15.4 µM
Clc1ccc(C2ON=C(c3ccccc3)N2C23CC4CC(CC(C4)C2)C3)c(Cl)c1 (stereo unspecified): > 10 µM
Cc1c2nc3ccccc3sc-2cc(=O)c1C: > 100 µM
CC(=O)OCC1OC(N2C(=S)N[C@H]([C@@H](O)[C@H](O)[C@H](O)CO)[C@H]2O)C(OC(C)=O)C(OC(C)=O)C1OC(C)=O (stereo partly specified): > 100 µM
CC(O)(CCCCCl)c1nc2ccccc2s1 (stereo unspecified): > 100 µM

Please look at the following molecule next.
// field: TGI; key: `CCN(CC)c1ccc2c(cc1=O)[C@@H](NC(C)=O)CCc1cc(OC)c(OC)c(OC)c1-2` ; value = > 100 µM

====

# Tested on: MCF7 breast
# MEASUREMENT PROTOCOL: NCI tumour cell line growth inhibition, 48 h; in the data active means GI50 below about 0.43 µM; inactive means the rest
Tick one outcome: active, inactive

O=c1[nH]c2ccc(N=Cc3c(O)[nH]c4ccccc34)cc2[nH]1: inactive

Request: Name the outcome recorded for `Cc1cccc(NC2=C(Cl)C(=O)N(Cc3ccc(Cl)cc3)C2=O)c1` in the assay.
Response: inactive

Request: I'd appreciate the recorded outcome for `Cc1nc2ccccc2c(/C=C/c2ccc(Cl)cc2)c1C(=O)/C=C/c1ccc(F)cc1` from this test.
Response: inactive

Request: Called result for `Cc1cc(I)cc(CN(C)CCN2CCOCC2)c1O`
Response: inactive

Request: Called result for `Fc1ccc(-c2nnc3sc(-c4cc(Cl)cc(Cl)c4)nn23)cc1Cl`
Response: inactive

Request: How was `Cn1c(-c2c(N)n(Cc3ccc(C(F)(F)F)cc3)c3nc(C#N)c(C#N)nc23)nc2ccccc21` classified in this test?
Response: inactive

Request: For CCn1cc(C(=O)N/N=C/c2ccc(Br)cc2)c(=O)c2cc(F)c(N3CCNC(C)C3)c(F)c21 (centres undefined) , what call appears in the results of this test?
Response: inactive

Request: Recorded test call requested for `Cn1cc(C2=C(c3c4n(c5ccccc35)CCN(C(N)=S)C4)C(=O)NC2=O)c2ccccc21`
Response: inactive

Request: Name the outcome recorded for `O=C(Nc1ccc(Oc2cccc(Cl)c2)c(Cl)c1)c1cnccn1` in the assay.
Response: active

Request: Short answer needed: outcome of this test for `COc1ccc(CN2C(=O)C(Cl)=C(Nc3cccc(O)c3)C2=O)cc1` ?
Response: inactive

Request: For this compound, state the assay outcome: `N=C1S/C(=C/c2ccc(-c3ccc4c(c3)C(=O)NC4=O)o2)C(=O)N1c1ccc(Br)cc1`
Response: inactive

====

TGI values for the compounds below.
# Tested on: SW-620 colon
# MEASUREMENT PROTOCOL: NCI tumour cell line growth inhibition, 48 h

COC(=O)CSC1CC(=O)c2c(Cl)sc(Cl)c21 (stereo not given): > 100 µM
COc1ccc2c3c1O[C@H]1C(=O)C=CC4(n5[nH]c(=O)n(-c6ccccc6)c5=O)C(C2)N(C)CCC314 (stereo not given in full): > 100 µM
COc1ccc(-c2c(C#N)c(N)nc3c2COc2ccc(F)cc2-3)cc1OC: > 100 µM
COCCNCCc1cccc(Nc2ncc3c(n2)-c2ccccc2C(c2ccccc2F)C3)c1 (stereo not given): 4.63 µM

Please turn your attention to the following entry.
Looking up `Oc1ccc(-c2cn3ccsc3n2)cc1O` , I see its TGI listed as 70.5 µM

====

# Tested on: NCI/ADR-RES ovarian
# MEASUREMENT PROTOCOL: NCI tumour cell line growth inhibition, 48 h
The entries below come with measured TGI values attached.

Known TGI results, listed for orientation:
COc1ccc(F)cc1/C=C/C(=O)/C=C(/C=C/c1cc(F)ccc1OC)OB(F)F: 6.41 µM
O=c1n(-c2ccccc2)c(=O)n2n1C1C=CC2CCCCCC1: > 100 µM
O=c1ccn(C2OC(COC3CCCCO3)C(OC3CCCCO3)C2OC2CCCCO2)c(=O)n1-c1ccccc1 (configuration not stated): > 100 µM
O=C1OC(c2ccccc2)=N/C1=C\c1ccc(F)cc1: > 100 µM
CC(C)(C)c1ccc2c(c1)C(=O)c1ccccc1C2=O: > 100 µM
Cc1cccc(NC2=C(Cl)C(=O)N(Cc3ccc(Cl)cc3)C2=O)c1: 8.03 µM

# evaluate next
Response field TGI (NCI/ADR-RES ovarian) for item `COc1ccc(OC)c(NC(=O)c2c(Cl)c(Cl)c(Cl)c(Cl)c2-c2nc3ccccc3[nH]2)c1` : > 100 µM

====

# Tested on: SNB-19 CNS
# MEASUREMENT PROTOCOL: NCI tumour cell line growth inhibition, 48 h
MEASUREMENT NAME: TGI

O=c1oc2ccc(Cl)cc2cc1C1=CSC2=NCCN12: 67.7 µM
CN1CCN(CCCCN2c3ccccc3Sc3ccc(C(=O)c4ccccc4)cc32)CC1: 3.45 µM
Nc1nc(-c2ccccc2)cc(-c2ccccc2O)n1: > 100 µM
O=C1CCC(c2nc3cc(Cl)ccc3o2)C(=O)N1 (stereo not given): > 100 µM
C=CCOC(C)n1c(C)c(Br)c(=O)[nH]c1=O (stereo not given): > 100 µM

Now consider the entry below.
Given item `O=C(Nc1cccc(Cl)c1)Nc1cc2ncncc2cc1OCc1cccc(F)c1` , the value recorded as its TGI is 74.2 µM

====

# Tested on: SN12C renal
# MEASUREMENT PROTOCOL: NCI tumour cell line growth inhibition, 48 h; in the data active = GI50 below about 0.43 µM; inactive = the rest
Valid outcomes are listed here; reply with one: active, inactive

# count of solved cases: 5
Fc1ccc(-c2nnc3sc(-c4cc(Cl)cc(Cl)c4)nn23)cc1Cl: inactive
COc1ccc2c(c1OC)CO[C@@H]2[C@H]1c2c(c(Br)c3c(c2OC)OCO3)CCN1C: inactive
Cc1nc2ccccc2c(/C=C/c2ccc(Cl)cc2)c1C(=O)/C=C/c1ccc(F)cc1: inactive
FC(F)(F)CNc1nccc(-c2cnn3ncccc23)n1: inactive
COc1ccc(C(O)c2cc3c(N)c(C(=O)Nc4cccc(OC)c4)sc3nc2C)cc1 (centres undefined): inactive

Request: Write down the call the test reported for this compound. Item: `Oc1ccc(-c2cn3ccsc3n2)cc1O`
Response: inactive

Request: Assay outcome for COc1cc(C(C)c2ccc3c(ccn3C)c2)cc(OC)c1OC (centres undefined) : what was it?
Response: active

====

# Tested on: NCI-H460 lung
# MEASUREMENT PROTOCOL: NCI tumour cell line growth inhibition, 48 h
Outcome: fulfilled for TGI of at least 10 µM; not fulfilled for anything lower.

N#C/C(=C\c1cc(Br)c(O)c(Br)c1)c1ccccn1: fulfilled

Request: hey, is TGI for this one >= 10 µM? `COc1ccc2c(c1OC)CO[C@@H]2[C@H]1c2c(c(Br)c3c(c2OC)OCO3)CCN1C`
Response: fulfilled

Request: Could you please find out whether CCC1(O)C(=O)OCc2c1cc1n(c2=O)Cc2cc3ccc(CO)cc3nc2-1 (stereo not given) has TGI that meets 10 µM or exceeds it?
Response: fulfilled

Request: Is TGI at least 10 µM? Consider O=C1OC(CC(=O)c2ccccc2Cl)C(Cl)=C1Cl (stereo not given)
Response: fulfilled

====

# Tested on: SK-MEL-28 melanoma
# MEASUREMENT PROTOCOL: NCI tumour cell line growth inhibition, 48 h
MEASUREMENT NAME: TGI

Example entries and their recorded answers appear below.
COc1cc(NC(=O)c2ccc(C(F)(F)F)nc2Nc2ccc(Cl)cc2C)cc(OC)c1OC: 26.4 µM
ClC1=C(Cl)C(Cl)=C(Cl)C1=Cc1ccccc1: 3.27 µM
COC1=C(OC)C23CCc4ccc(OC)c(O)c4C2(CCN3)CC1=O (stereo unspecified): > 100 µM
C=CCOC(C)n1c(C)c(Br)c(=O)[nH]c1=O (stereo unspecified): > 100 µM
O=C1C(=O)c2ccccc2C(O)=C1Cc1ccccc1: > 100 µM

Next molecule, TGI to be filled in.
TGI recorded for this molecule, COc1cc(C(C)c2ccc3c(ccn3C)c2)cc(OC)c1OC (stereo unspecified) , is > 100 µM

====

# System: HOP-92 NSCLC
# MEASUREMENT PROTOCOL: NCI tumour cell line growth inhibition, 48 h
MEASUREMENT NAME: TGI

COc1ccc(Cc2nc3cc([N+](=O)[O-])ccc3n2C[C@@H]2CCCN3CCCCC23)cc1 (stereo partly drawn): 76.8 µM
ClCCN1CCOC1=C1C=CC=C1: > 100 µM
CCOc1ccc(NC(=O)/C(=N\N)C(C(=O)OC)c2nc3ccc(Cl)cc3[nH]c2=O)cc1 (stereo not drawn): > 100 µM

molecule CC(C)=NNc1ncnc2c1ncn2C1OC(CO)C(O)C1O (stereo not drawn) , TGI observed: 5.27 µM

The reported value for `O=c1[nH]nc(Cc2ccccc2)n1O` in terms of TGI is > 100 µM

The molecule listed as `Cc1ccc(Nc2nc(C)c(C(=O)CC(=O)C(=O)Nc3c(C)cccc3C(C)(C)C)s2)cc1` has a reported TGI of > 100 µM

Recorded result, `COCCCCCC(=O)CP(=O)(OC)OC` , TGI: > 100 µM

Record COC(=O)C(CCC1CC(OC)N(C(=O)OCc2ccccc2)C1)N=Cc1ccccc1 (stereo not drawn) . Reported TGI: > 100 µM

// TGI value for `COc1ccc(OC)c(NC(=O)c2c(Cl)c(Cl)c(Cl)c(Cl)c2-c2nc3ccccc3[nH]2)c1` : > 100 µM

Per the record, CCCCOC(=O)NC(c1ccccc1)C(O)C(=O)OC1C[C@@]2(O)C(OC(=O)c3ccccc3)C3[C@](C)(C(=O)[C@H](OC(C)=O)C(=C1C)C2(C)C)[C@@H](O)C[C@H]1OC[C@@]31OC(C)=O (stereo partly drawn) has TGI of > 10 µM

// TGI value for `[N-]=[N+]=Nc1ccc2c(c1)Sc1ccccc1N2CCCCN1CCN(Cc2ccc(C(=O)c3ccccc3)cc2)CC1` : 11.7 µM

// sample Clc1ccc(C2ON=C(c3ccccc3)N2C23CC4CC(CC(C4)C2)C3)c(Cl)c1 (stereo not drawn) , its TGI was > 10 µM

Query C=C(C)C(CC=C(C)C)Cc1c(O)cc(OC)c2c1OC(c1ccc(O)cc1O)C(O)C2=O (stereo not drawn) yields TGI of 28 µM

Item: O=C1CCC(C(=O)O)C2=C1CCCC2 (stereo not drawn) | TGI: > 100 µM

// recorded TGI for CCn1cc(C(=O)N/N=C/c2ccc(Br)cc2)c(=O)c2cc(F)c(N3CCNC(C)C3)c(F)c21 (stereo not drawn) : 2.58 µM
